B1: TPR t1 (parent)
chain: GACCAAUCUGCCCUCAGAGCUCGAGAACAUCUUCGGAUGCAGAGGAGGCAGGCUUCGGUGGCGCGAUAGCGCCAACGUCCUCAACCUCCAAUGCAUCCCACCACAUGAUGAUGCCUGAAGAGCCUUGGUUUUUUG

- Variants of: B1
- assayRemarks: polymerase ribozyme fitness, log enrichment relative to wild type (log ratio); higher = more active; in vitro selection for triplet polymerase activity
Assignment: determine reported polymerase ribozyme fitness (log ratio) for the given variants.
Give the figure by itself; no unit, no explanation.

Find the recorded polymerase ribozyme fitness (log ratio) belonging to C114G C124A and report it.
-1.15

Do the same for G10C C114U please
-2.38

Moving on to C13G A83U
-2.24

What do you get for C40A G61A C73U C88U G113U ?
-6.64
